# Assay name: compound binding in COS7 lysate, probe aLAP1, primary screen, cell lysate, small-molecule microarray (AID 1124);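 note: lysate comes from COS7 cells expressing LAP1 and is applied at 0.3 µg/mL; score merges spot fluorescence near 667 nm with signal-to-noise over triplicate slides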
# Measurement context: probe aLAP1, fluorescence, higher = more signal
Classify by measured composite z-score: True if it is equal to or exceeds -0.09, False if it is smaller.

compound=CC(CCN1CCCc2nc(C)c(C)cc21)=NO[C@H](C)c1cn([C@@H]2COC[C@H]2O)nn1 assigned_category=True
compound=CC(CCN1CCc2nc(-c3ccccc3)c(-c3ccccc3)cc2C1)=NO[C@@H](C)c1cc(-c2c(C)cc(C)cc2C)no1 assigned_category=True
compound="CC1(C)O[C@H]2OC([C@H](O)CON3C(=O)c4ccccc4C3=O)[C@H](O)[C@H]2O1 (stereo partly drawn)" assigned_category=False
compound=C=C(C)C(=O)OC[C@H]1CN2[C@@H](CC[C@@H](C)[C@@H]2c2ccc(Br)cc2)C(=O)O1 assigned_category=True
compound="CCC1=NOC(CCC2CC(OC(=O)NCc3cccc4c3OCO4)CC3(CCCC(COC(=O)NCCc4ccc(Cl)cc4)O3)O2)C1 (stereo not drawn)" assigned_category=False

Is it the case that CC(=O)OC[C@H]1O[C@H](CCON=C(C)CCN2CCCc3nc(C)c(C)cc32)C=C[C@@H]1OC(C)=O has composite z-score reaching or exceeding -0.09?
True

Entry CCOC(=O)[C@H](CC(C)C)NC(=O)CCC1CC(OC(=O)NCc2ccc3c(c2)OCO3)CC2(CCCC(COC(=O)NCCC(C)C)O2)O1 (stereo partly drawn) : is its composite z-score no less than -0.09?
True

composite z-score >= -0.09 for CC(=O)OC[C@H]1O[C@H](C#CCCc2ccccc2)C=C[C@@H]1OC(C)=O ?
False

====

Measured z-score by item
# Target or test system: Luciferin 4-monooxygenase (Photinus pyralis) (UniProt P08659)
# Sequence (P08659 whole entry, looked up): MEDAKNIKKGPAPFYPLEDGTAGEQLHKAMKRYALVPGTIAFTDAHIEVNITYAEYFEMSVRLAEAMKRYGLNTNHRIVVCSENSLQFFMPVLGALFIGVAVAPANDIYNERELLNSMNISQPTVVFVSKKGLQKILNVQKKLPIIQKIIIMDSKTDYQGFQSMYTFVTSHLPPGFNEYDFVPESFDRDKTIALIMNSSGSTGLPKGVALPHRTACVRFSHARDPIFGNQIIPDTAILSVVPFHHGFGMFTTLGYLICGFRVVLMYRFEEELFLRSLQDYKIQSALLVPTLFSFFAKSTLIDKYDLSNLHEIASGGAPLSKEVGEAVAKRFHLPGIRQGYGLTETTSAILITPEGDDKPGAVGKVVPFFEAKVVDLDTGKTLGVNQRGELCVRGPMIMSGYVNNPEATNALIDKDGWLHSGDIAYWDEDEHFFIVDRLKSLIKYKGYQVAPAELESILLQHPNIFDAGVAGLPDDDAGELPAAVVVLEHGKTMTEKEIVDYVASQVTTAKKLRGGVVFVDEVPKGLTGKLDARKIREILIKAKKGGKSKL
# Assay name: firefly luciferase enzyme inhibitors, primary screen, biochemical, luminescence, purified enzyme, 2006 set (AID 1141);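 note: cell-free assay with purified firefly luciferase at 100 ng per well in PBS; test concentration not given here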
# Measurement context: SteadyGlo luminescence, 30 min, higher = more signal, called active from +8 up or from −8 down
The source made the active and inactive calls.

The following molecules have reported results that may help.
molecule=CC(C)=CCCC(C)=CCON=C1C[C@@H](O)[C@@H](O)[C@@H]2[C@@H]3C(=O)N(Cc4ccc5c(c4)OCO5)C(=O)[C@@H]3CC[C@H]12 test_value="0.497 (inactive)"
molecule=CC[C@@H](c1ccccc1)n1c(=O)n2n(c1=O)[C@H]1[C@H](O)[C@@H]3O[C@@H]3C(=NOCc3ccccc3)[C@H]1CC2 test_value="0.0145 (inactive)"
molecule=COc1ccc(COC(=O)NN=C2C[C@@H](O)[C@@H](O)[C@@H]3[C@@H]4C(=O)N(C(C)(C)C)C(=O)[C@@H]4CC[C@@H]23)cc1 test_value="0.137 (inactive)"
molecule="CC(CCC(=O)OC[C@H]1O[C@H](C#Cc2ccccc2)C=C[C@@H]1Oc1ccc(C)cc1)=NOC(C)CN1CCCc2nc(C)c(C)cc21 (some centres not stated)" test_value="0.0139 (inactive)"
molecule=CO[C@@H]1COC(=O)[C@@H]2CCCN2C(=O)[C@@H](C)COC(=O)CCC[C@H]1C test_value="0.173 (inactive)"
molecule=C[C@@H](c1ccccc1)N1C(=O)[C@H]2[C@H]3[C@H](O)[C@H](O)CC(=NOCc4ccccc4)[C@@H]3CC[C@H]2C1=O test_value="0.747 (inactive)"
molecule=O=C1[C@H]2[C@H]3[C@H](O)[C@H](O)CC(=NOC[C@@H](O)COCc4ccco4)[C@@H]3CC[C@H]2C(=O)N1Cc1ccccc1 test_value="1.2 (inactive)"
molecule=Cc1ccc(S(=O)(=O)N[C@@H]2COC(=O)CC=C[C@@H](C)[C@H](NS(=O)(=O)c3ccc(C)cc3)COC(=O)[C@H](C)NC(=O)CC=C[C@H]2C)cc1 test_value="-0.743 (inactive)"

Find the measured z-score of COc1ccc(O[C@H]2C=C[C@@H](c3ccccc3)O[C@@H]2COC(=O)CCC(C)=NOC[C@@H](O)COCc2ccco2)cc1 and report it.
-0.49 (inactive)

Complete the entry with z-score for CC(=O)OC[C@H]1O[C@H](CCON=C(C)C)C=C[C@@H]1OC(C)=O
0.654 (inactive)

Give the measured z-score for CO[C@H]1COC(=O)[C@H](CCSC)NC(=O)CC=C[C@@H](C)[C@H](OC)COC(=O)[C@@H](OCc2ccccc2)C=C[C@@H]1C
1.28 (inactive)

Identify measured z-score corresponding to CC(=O)OC[C@H]1O[C@H](CC=NOC[C@@H](O)[C@H]2O[C@@H]3OC(C)(C)O[C@@H]3[C@H]2O)C=C[C@@H]1OC(C)=O
0.94 (inactive)

====

# Assay name: small-molecule microarray binders of probe aCHRDL2, primary screen, biochemical, biotinylated probe, 635/667 nm fluorescence (AID 1100)
# Measurement context: higher = more signal
Measured composite z-score, listed per entry for reference.
Could you respond with only the numeric value?

smiles_input=O=C1[C@H]2[C@H]3[C@H](O)[C@H](O)CC(=NOC[C@@H](O)COCc4ccco4)[C@@H]3CC[C@H]2C(=O)N1c1cccc(Oc2ccccc2)c1 test_value=-0.885
smiles_input=CCOC(=O)CCN1C(=O)[C@H]2[C@H]3[C@H](O)[C@H](O)CC(=NO[C@@H]4O[C@H](CO)[C@@H](O)[C@H](O)[C@H]4O)[C@@H]3CC[C@H]2C1=O test_value=-0.573
smiles_input=CON=C(C)CCN1CCCc2nc(C)c(C)cc21 test_value=-0.429

# evaluate next
Complete the entry with composite z-score for CC(=O)OC[C@H]1O[C@H](CC=NOCC[C@@H]2C=C[C@H](OC(C)=O)[C@@H](COC(C)=O)O2)C=C[C@@H]1OC(C)=O
-0.752

====

# Target or test system: Focal adhesion kinase 1 (Homo sapiens) (UniProt Q05397)
# Sequence (Q05397 whole entry, looked up): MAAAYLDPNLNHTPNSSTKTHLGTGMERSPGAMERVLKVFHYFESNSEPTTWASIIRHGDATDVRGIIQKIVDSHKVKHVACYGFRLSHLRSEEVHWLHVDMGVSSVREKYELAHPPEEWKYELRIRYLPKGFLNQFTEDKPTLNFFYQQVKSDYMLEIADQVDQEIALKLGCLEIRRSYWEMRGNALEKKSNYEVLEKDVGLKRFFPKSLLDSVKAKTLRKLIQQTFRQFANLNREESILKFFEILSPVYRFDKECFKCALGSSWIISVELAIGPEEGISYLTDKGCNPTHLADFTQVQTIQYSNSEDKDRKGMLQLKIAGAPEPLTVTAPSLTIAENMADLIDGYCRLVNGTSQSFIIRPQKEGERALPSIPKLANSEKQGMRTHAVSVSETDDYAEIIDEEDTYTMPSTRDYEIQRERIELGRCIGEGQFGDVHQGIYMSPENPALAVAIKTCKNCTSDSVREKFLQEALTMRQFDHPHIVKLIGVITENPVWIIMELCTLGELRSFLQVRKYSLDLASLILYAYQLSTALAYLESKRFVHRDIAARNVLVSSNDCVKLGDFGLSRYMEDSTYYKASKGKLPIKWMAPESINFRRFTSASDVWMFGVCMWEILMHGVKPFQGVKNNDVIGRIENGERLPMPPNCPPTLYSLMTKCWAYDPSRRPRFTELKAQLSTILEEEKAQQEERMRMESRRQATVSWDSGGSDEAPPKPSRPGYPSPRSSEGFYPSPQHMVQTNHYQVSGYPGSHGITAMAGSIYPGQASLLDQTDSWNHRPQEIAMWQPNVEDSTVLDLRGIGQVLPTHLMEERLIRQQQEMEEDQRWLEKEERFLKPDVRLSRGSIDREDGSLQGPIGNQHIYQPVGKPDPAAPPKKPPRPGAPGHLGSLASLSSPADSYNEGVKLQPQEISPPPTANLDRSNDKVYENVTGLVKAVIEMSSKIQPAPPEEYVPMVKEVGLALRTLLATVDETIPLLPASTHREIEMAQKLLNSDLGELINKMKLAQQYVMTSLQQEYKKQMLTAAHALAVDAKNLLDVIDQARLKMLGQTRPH
# Assay name: small-molecule microarray binders of FAK, primary screen, biochemical, 635/667 nm fluorescence, BSA, DTT (AID 1130);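 note: composite of spot emission at 667 nm and signal to noise over triplicate slides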
# Measurement context: PTK2 binding, 635 nm fluorescence, higher = more signal
Each entry below lists one item and its recorded composite z-score value.
No unit in the answer, only the number.

compound="CCOC(=O)[C@H](CC(C)C)NC(=O)CCC1CC(OC(=O)NCCc2ccc(F)cc2)CC2(CCCC(COC(=O)NCc3cccc4ccccc34)O2)O1 (stereo partly specified)" result_type="composite z-score" test_value=0.2
compound=COc1ccc(-c2cnnc(CCCn3ccnc3-c3ccccc3)n2)cc1 result_type="composite z-score" test_value=0.107
compound=CO[C@@H]1C=CCC(=O)N[C@@H](C)C(=O)OC[C@@H](NS(=O)(=O)c2ccc(C)cc2)[C@H](C)C=CCC(=O)OC[C@H]1C result_type="composite z-score" test_value=-0.0987
compound=CO[C@@H]1COC(=O)CC=C[C@H](C)[C@H](OC)COC(=O)[C@@H]2CCCN2C(=O)CC=C[C@H]1C result_type="composite z-score" test_value=-0.226
compound="C[C@@H]1CC[C@H]2C(=O)OC(CN3C(=O)c4ccccc4C3=O)CN2[C@H]1c1ccc(Br)cc1 (stereo partly specified)" result_type="composite z-score" test_value=0.246
compound=CC(C)=NO[C@H](C)c1cn([C@@H]2COC[C@H]2O)nn1 result_type="composite z-score" test_value=0.335
compound=CCOC(=O)CCN1C(=O)[C@H]2[C@H]3[C@H](O)[C@H](O)CC(=NO[C@@H]4O[C@H](CO)[C@@H](O)[C@H](O)[C@H]4O)[C@@H]3CC[C@H]2C1=O result_type="composite z-score" test_value=0.118
compound=COc1ccc(OC[C@@H](CO)OC)cc1 result_type="composite z-score" test_value=0.172

Check the records and state composite z-score for COC(OC)[C@@H](C)[C@H](OC)[C@@H](C)[C@H](OC)c1ccccc1
-0.043

Quick one: give measured composite z-score for CC(C)CON=C1C[C@@H](O)[C@@H](O)[C@@H]2[C@@H]3C(=O)N(c4ccc(F)cc4F)C(=O)[C@@H]3CC[C@@H]12
0.156

Using the record for CC(C)(C)N1C(=O)[C@H]2[C@@H]3C(=CC[C@H]2C1=O)C(=O)[C@H]1O[C@H]1[C@H]3O , state its measured composite z-score.
-0.339

Give reported composite z-score value for C#CCCCON=C1C[C@@H](O)[C@@H](O)[C@@H]2[C@@H]3C(=O)N(C4CCCCC4)C(=O)[C@@H]3CC[C@@H]12
0.394

Output measured composite z-score for this item: CCc1cc2c(nc1CC)CCN(CCC(C)=NOC[C@@H](C)[C@H](OCc1ccccc1)C(C)C)C2
-0.846

Specify composite z-score for CCN1C(=O)[C@H]2[C@H]3[C@H](O)[C@H](O)CC(=NNC(=O)OCc4ccccc4)[C@H]3CC[C@H]2C1=O and stop.
-0.117

Report measured composite z-score; entry is CCOC(=O)[C@H](CC(C)C)NC(=O)CCC1CC(OC(=O)NCCc2ccc(F)cc2)CC2(CCCC(COC(=O)NCCOC)O2)O1 (stereo partly specified)
0.318

Tell me its composite z-score given CC(CCN1CCc2nc(-c3ccccc3)c(-c3ccccc3)cc2C1)=NOC(C)CN1CCCc2nc(C)c(C)cc21 (stereo unspecified) as the entry.
0.382

src = PubChem BioAssay
